Test system: Mus musculus
assay_method_text: Antinociceptive activity was measured using the mouse acetylcholine-induced abdominal constriction test following subcutaneous administration of the compound
Type: functional
condition_info: Abdomen, sc
metric: ED50 (µg/kg)
Write down the numeric answer in µg/kg and omit the unit.

Please report the recorded ED50 for O=C(Cc1ccc(Cl)c(Cl)c1)N1CCc2c(O)cccc2C1CN1CCCC1 (stereo unspecified) .
3

Data request, read-out ED50, for O=C(Cc1ccc(Cl)c(Cl)c1)N1CCc2occc2C1CN1CC=CCC1 (stereo unspecified)
4

Which ED50 reading was recorded for the compound O=C(Cc1ccc(Cl)c(Cl)c1)N1CCc2c(O)cccc2C1CN1CCC(O)C1 (stereo unspecified) ?
84

Entry under review: "O=C(Cc1ccc(Cl)c(Cl)c1)N1CCc2occc2[C@@H]1CN1CC[C@H](O)C1" . Reported ED50?
1.5

Could you tell me which ED50 is on file for "O=C(Cc1ccc(Cl)c(Cl)c1)N1CCc2occc2[C@H]1CN1CC[C@@H](O)C1" ?
30

Can you share its ED50? I mean this compound: O=C(Cc1ccc(Cl)c(Cl)c1)N1CCc2occc2C1CN1CCCC1 (stereo unspecified)
30

// query ED50 value for entry Cc1cc2c(o1)CCN(C(=O)Cc1ccc(Cl)c(Cl)c1)C2CN1CCC(O)C1 (stereo unspecified)
12

Need ED50 of O=C(Cc1ccc(Cl)c(Cl)c1)N1CCc2occc2C1CN1CC[C@H](O)C1 (single isomer, unassigned) , thanks.
1

Given the entry O=C(Cc1ccc(Cl)c(Cl)c1)N1CCc2occc2C1CN1CCC(O)C1 (stereo unspecified) , report its measured ED50.
2

# query: ED50 of entry O=C(Cc1ccc(Cl)c(Cl)c1)N1CCC2(CC1CN1CCCC1)OCCO2 (stereo unspecified)
1

Please give the measured ED50 for this compound: O=C1CCN(CC2c3ccoc3CCN2C(=O)Cc2ccc(Cl)c(Cl)c2)C1 (stereo unspecified)
19

All values here come from ChEMBL document CHEMBL1127741.
